The measured values listed here are drawn from paper PMC12074479.

Experiment: BALB 3T3 Neutral Red Uptake cytotoxicity/phototoxicity test
Settings: mouse, Mean CC50 ± SD, −Irr, BALB 3T3 cells, non-irradiated (dark), NRU
Where no end group is shown, it is not given here.

substance	CC50 (µM)
GLFDIIKKIAESF-NH2 [Aurein 1.2]	87.6

----------
Test system: BALB 3T3 cells
Assay: in vitro
Where a SMILES comes first, the peptide text is derived from it. [ ]: non-standard residue; d: D form. Dab = NCC[C@H](N)C(=O)O
property_name: PIF (Photo Irritation Factor)

molecule	property_name	endpoint_value
CC[C@H](C)[C@H](NC(=O)[C@H](CCCCN)NC(=O)[C@H](CCN)NC(=O)[C@@H](NC(=O)[C@@H](NC(=O)[C@H](CC(=O)O)NC(=O)[C@H](Cc1ccccc1)NC(=O)[C@H](CC(C)C)NC(=O)CN)[C@@H](C)CC)[C@@H](C)CC)C(=O)N[C@@H](C)C(=O)N[C@@H](CCC(=O)O)C(=O)N[C@@H](CO)C(=O)N[C@@H](Cc1ccccc1)C(N)=O [EH [Dab]^7] (H-GLFDII[Dab]KIAESF-NH2)	PIF (Photo Irritation Factor)	1.40
